Value source: patent US6512166B1

Experimental Details: Solubility, guidance for forming solutions
Excerpt: Compositions for use in the systems herein are readily formulated by admixing the fungal cell wall degrading enzymes and the antifungal fungal cell membrane affecting compounds with non-toxic carriers appropriate for the particular use for a composition, e.g., agriculturally acceptable carriers for agricultural uses and pharmaceutically acceptable carriers for medicinal uses. They may be formulated as liquids (solutions or suspensions) or as solids. […]
Measure: solubility (solvent in which the substance dissolves)

CC(C)[C@@H]1NC(=O)[C@H](C)OC(=O)[C@@H](C(C)C)NC(=O)[C@@H](C(C)C)OC(=O)[C@H](C(C)C)NC(=O)[C@H](C)OC(=O)[C@@H](C(C)C)NC(=O)[C@@H](C(C)C)OC(=O)[C@H](C(C)C)NC(=O)[C@H](C)OC(=O)[C@@H](C(C)C)NC(=O)[C@@H](C(C)C)OC1=O [Valinomycin, valinomycin]
dissolve in acetone
C[Si](Cn1cncn1)(c1ccc(F)cc1)c1ccc(F)cc1 [Flusilazole, flusilazole]
dissolve in acetone
